Molecular target: HSP18 (Mycobacterium leprae)
Construct: recombinant wild-type M. leprae HSP18
Experiment: SPR (Biacore T200, HSP18 immobilized on CM5 chip); also TNP-ATP displacement and thermal stabilization
Format: binding
Experimental readout: Kd (nM)
Could you give me the number in nM? Just the number is fine.

## Input Could you please provide reported Kd for Nc1ncnc2c1ncn2[C@@H]1O[C@H](COP(=O)(O)OP(=O)(O)OP(=O)(O)O)[C@@H](O)[C@H]1O [ATP] ? Thanks!
## Output 590

----------
Biological target: HSP18 (Mycobacterium leprae, UniProt P12809)
Construct: recombinant wild-type M. leprae HSP18
Sequence (P12809 whole entry): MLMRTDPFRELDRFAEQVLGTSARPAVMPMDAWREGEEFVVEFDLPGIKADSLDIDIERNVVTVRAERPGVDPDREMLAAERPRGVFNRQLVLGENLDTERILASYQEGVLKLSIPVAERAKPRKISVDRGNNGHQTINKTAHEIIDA
Assay: fluorescence titration, Scatchard analysis
Assay type: binding
Experimental readout: Kd (nM)
Answer with a number only, understood to be in nM.

## Input Read the entry Nc1ncnc2c1ncn2[C@@H]1O[C@H](COP(=O)(O)OP(=O)(O)OP(=O)(O)O)[C@H]2OC3(O[C@H]21)C([N+](=O)[O-])=CC(=[N+]([O-])[O-])C=C3[N+](=O)[O-] (stereo partly shown) [TNP-ATP] and write its reported Kd.
## Output 730

----------
Biological target: HSP18 (Mycobacterium leprae)
Construct: recombinant wild-type M. leprae HSP18
Assay: SPR (Biacore T200, HSP18 immobilized on CM5 chip)
Type: binding
Experimental readout: pKd
API: returns pKd as number; meaning -log10 of concentration in mol/L.

## Input Tell us which pKd value is on record for Nc1ncnc2c1ncn2[C@@H]1O[C@H](CO[P@](=O)(O)O[P@](=O)(O)O[P@@](=O)(O)S)[C@@H](O)[C@H]1O
## Output 6.48
